// data source = patent US20240124434A1

- Assay protocol: In vitro microsomal stability, mouse liver microsomes
- Format: in vitro ADME
- Measurement setup: mouse, mouse liver microsomes, pH 7.4; read-out: T1/2 @ mLM
Reported values of half-life at […], 1 µM for individual entries
Reported metric: half-life at […], 1 µM (min)

• C[C@H](c1ccc(C(F)(F)F)cc1C(F)(F)F)n1cc(NC(=O)c2cnc(-c3ccccn3)s2)cn1 = 108
• C[C@H](c1ccc(C(F)(F)F)cc1C(F)(F)F)n1cc(NC(=O)c2nnc(-c3cnccn3)s2)cn1 = 127
• CN(C(=O)c1cc(-c2ccccn2)on1)c1cnn(Cc2ccc(C(F)(F)F)cc2C(F)(F)F)c1 = 5.12
• Cc1ccc(-c2cc(C(=O)Nc3cnn(Cc4ccc(C(F)(F)F)cc4C(F)(F)F)c3)no2)o1 = 6.1
